measurement.protocol: Volume of distribution after single intravenous dose
Assay type: in vivo, rat
stated.conditions: male Sprague Dawley rats, single 3 mg/kg intravenous dose
Method: The volume of distribution (Vdist) relates the amount of the drug in the body to the concentration of the drug in the blood or plasma. […] To test for volume of distribution, Male Sprague Dawley rats (N=3) are administered a single 3 mg/kg intravenous dose of compound. […] The plasma samples are analyzed by LC/MS/MS to determine the plasma concentrations. […]
quantity.kind: rat Vdist (L/kg)

Worked set:
Given item CCC(CC)c1cc(C)nn2c(-c3sc(-c4ccc(F)cc4)cc3C)c(C)nc12 [Example 39] , the value recorded as its rat Vdist is 17

Briefly, rat Vdist measured for CCC(CC)c1cc(C)nn2c(-c3sc(N4CCOCC4)nc3Cl)c(C)nc12 [Example 199] : 2

I. CCC(CC)c1cc(C)nn2c(-c3sc(-c4ncnn4C)cc3Cl)c(C)nc12 [Example 88]
II. CCC(CC)c1cc(C)nn2c(-c3sc(-c4ncnn4C)nc3Br)c(C)nc12 [Example 48]
# compare rat Vdist for I vs II ; return the one with the smaller value Let me know the label of the one you choose. II
(II: 9 L/kg, I: 44 L/kg)
